tested on: P. falciparum stage V gametocytes; parameters: BacTiter-Glo ATP luminescence viability of purified stage V gametocytes in 384-well plates, per cent inhibition versus DMSO; conditions: 48 h, 5 µM; inhibitor
The whole screen tested about 13,000 compounds, of which about 3,200 (25%) showed an effect of 50% or more. The list shows a part of the results.
Catalogue of compounds with associated % Inhibition
Record the value in %, omitting the unit from your answer.

Use the examples below as a reference point.
| compound | readoutType | observedValue |
| --- | --- | --- |
| C[C@H](Cc1ccc(C[C@@H](C)NC[C@H](O)c2cccc(Cl)c2)cc1)NC[C@H](O)COc1ccccc1 | % Inhibition | 104.7 |
| COc1cccc(CNC[C@@H](O)[C@H](Cc2ccccc2)NC(=O)c2cc(NC(C)C)cc(N3CCCCS3(=O)=O)c2)c1 | % Inhibition | 28.03 |
| CC(C)N1CCC(NCc2ccc(-c3ccc(Cl)cc3)cc2)CC1 | % Inhibition | 35.52 |
| CC(=O)Nc1nc(C(=O)Nc2ccc(-c3cccc(-c4nc5c(C)cccc5[nH]4)c3)cc2)cs1 | % Inhibition | -2.039 |
| Clc1ccc(CNC2CCN(CC3CCCCC3)CC2)cc1 | % Inhibition | -44.47 |
| O=C(NCc1cccc(F)c1)Nc1ccc(-c2cccc(-c3nc4ccccc4[nH]3)c2)cc1 | % Inhibition | 6.044 |
| FC(F)(F)c1ccc(-c2ccc(CNC3CCN(CCN4CCOCC4)CC3)cc2)cc1 | % Inhibition | 39 |
| CC(=O)Nc1ccc(CN2CCc3ccc(NS(=O)(=O)c4cccc(OCc5ccc(Cl)cc5)c4)cc3CC2)s1 | % Inhibition | 4.938 |

Please report the recorded % Inhibition for Cc1cccc2[nH]c(-c3cccc(-c4ccc(NC(=O)C5CC(=O)Nc6ccccc65)cc4)c3)nc12 (stereo not drawn) . -77.35

Please report the recorded % Inhibition for COc1ccccc1CCNc1ncnc2c1[nH]c1ccc(F)cc12 . 39.14

Please report the recorded % Inhibition for Cc1ccoc1C(=O)Nc1cccc(-c2cccc(-c3nc4ccccc4[nH]3)c2)c1 . -43.19

Please report the recorded % Inhibition for O=C(/C=C/c1ccc2ccccc2c1)NC1CCC(CN2CCC(c3c[nH]c4ccccc34)CC2)CC1 (stereo not drawn) . 26.41

Please report the recorded % Inhibition for O=C(/C=C/c1ccc(Cl)c(Cl)c1)NCCCCCN1CCC(NC(=O)Nc2ccc(F)c(F)c2)CC1 . -48.39

###

test system: P. falciparum stage V gametocytes; parameters: BacTiter-Glo ATP luminescence viability of purified stage V gametocytes in 384-well plates, per cent inhibition versus DMSO; conditions: 48 h, 5 µM; inhibitor
Among all 13,000 compounds or so, about 3,200 (25%) showed an effect of 50% or more. Some of the results follow.
readoutType: % Inhibition (%)
Record the value in %, omitting the unit from your answer.

| substanceSmiles | % Inhibition [%] |
| --- | --- |
| COc1ccc(NC(=O)c2ccc(NC(=O)c3ccc(Cl)cc3)cc2)cc1N1CCN(C)CC1 | 5.64 |
| COc1ccc(-c2cncc(-c3ccc(OC)c(OC)c3)n2)cc1OC | 25.57 |

Please report the recorded % Inhibition for COc1ccc(NC(=O)c2cccc(Br)c2)cc1N1CCN(CCCCCCCN2CCN(c3cc(NC(=O)c4cccc(Br)c4)ccc3OC)CC2)CC1 . 104.8

Please report the recorded % Inhibition for CCN1CCN(c2cc(C)c3cc(NC(=O)c4ccc(OC)c([N+](=O)[O-])c4)ccc3n2)CC1 . 3.112

Please report the recorded % Inhibition for N#Cc1ccc(N(CCOc2ccc(Cl)c(Cl)c2)Cc2ccccc2C(F)(F)F)cc1C(F)(F)F . -20.83

Please report the recorded % Inhibition for COc1ccc(NC(=O)c2ccc(OCCCCCCCOc3ccc(C(=O)Nc4ccc(OC)c(N5CCN(C)CC5)c4)cc3)cc2)cc1N1CCN(C)CC1 . 102

Please report the recorded % Inhibition for Oc1ccc2[nH]cc(C3CCN(CCCCCCCCCN4CCC(c5c[nH]c6ccc(O)cc56)CC4)CC3)c2c1 . 74.24

Please report the recorded % Inhibition for CS(=O)(=O)c1ccc(CCNCc2ccc(-c3cccc(-c4nc5ccccc5[nH]4)c3)cc2)cc1.O=C(O)C(F)(F)F . 87.75

###

tested on: P. falciparum stage V gametocytes; set-up: BacTiter-Glo ATP luminescence viability of purified stage V gametocytes in 384-well plates, per cent inhibition versus DMSO; conditions: 48 h, 5 µM; inhibitor
The campaign covered roughly 13,000 compounds. About 3,200 (25%) showed an effect of 50% or more. The list shows a part of the results.
Record 1 (yes) whenever % Inhibition is at 70% or higher; record 0 (no) when lower.

Consider the worked cases shown below.
| molecule | answerLabel |
| --- | --- |
| COCCNCc1cccc(-c2ccc3nccc(Nc4cc(O)ccc4C)c3c2)c1 | 0 (no) |
| c1ccc(C2=NN=C(c3ccccn3)C3C4CC(C23)C2C3CC(c5ccccc53)C42)nc1 (stereo not drawn) | 0 (no) |
| O=C(Nc1ccc(SC(F)(F)F)cc1)Nc1ccnc2ccccc12 | 1 (yes) |
| CS(=O)(=O)CCNCc1cccc(-c2ccc3c(Nc4ccc(Oc5cccnc5)cc4)ccnc3c2)c1 | 0 (no) |
| COCCNCc1cccc(-c2ccc3c(Nc4ccc(Oc5ccccc5)cc4)ccnc3c2)c1 | 1 (yes) |
| Cc1cc(Cl)ccc1NC(=O)NCCCCCN1CCC(c2c[nH]c3ccccc23)CC1 | 0 (no) |
| CS(=O)(=O)CCNCc1cccc(-c2cc3nccc(Nc4ccc(Oc5ccccc5)cc4)c3cc2Cl)c1 | 0 (no) |
| O=C(NCCCCCN1CCC(c2c[nH]c3ccccc23)CC1)Nc1ccc(Cl)c(Cl)c1 | 1 (yes) |

Is the recorded value of % Inhibition equal to or greater than 70% for this molecule? O=C(NCC(CCCN1CCC(c2c[nH]c3ccccc23)CC1)c1ccccc1)Nc1ccc(Cl)c(Cl)c1 (stereo not drawn) 0 (no)

Is the recorded value of % Inhibition equal to or greater than 70% for this molecule? COCCNCc1ncsc1-c1ccc2c(Nc3ccc(Oc4ccccc4)cc3)ccnc2c1 0 (no)

Is the recorded value of % Inhibition equal to or greater than 70% for this molecule? Cc1nc2ccc(S(=O)(=O)Nc3ccc(C(=O)N[C@@H](CCC(=O)O)C(=O)O)cc3)cc2c(=O)[nH]1 0 (no)

Is the recorded value of % Inhibition equal to or greater than 70% for this molecule? S=C(NCCCCCN1CCC(c2c[nH]c3ccccc23)CC1)Nc1cccc(I)c1 1 (yes)

###

tested on: P. falciparum stage V gametocytes; design: BacTiter-Glo ATP luminescence viability of purified stage V gametocytes in 384-well plates, per cent inhibition versus DMSO; conditions: 48 h, 5 µM; inhibitor
The campaign covered roughly 13,000 compounds. About 3,200 (25%) showed an effect of 50% or more. This is one part of the list.
Catalogue of compounds with associated % Inhibition
Please give the number followed by its unit.

Please report the recorded % Inhibition for CCCN(CCC)C(C)CCC(C)Nc1c2ccc(Cl)cc2nc2ccc(OC)cc12 (stereo not drawn) . 50.36%

###

Catalogue of compounds with associated % Inhibition
system: P. falciparum stage V gametocytes; parameters: BacTiter-Glo ATP luminescence viability of purified stage V gametocytes in 384-well plates, per cent inhibition versus DMSO; conditions: 48 h, 5 µM; inhibitor
Hit rate of the full screen: of about 13,000 compounds, about 3,200 (25%) showed an effect of 50% or more. The list shows a part of the results.
Record the value in %, omitting the unit from your answer.

Use the examples below as a reference point.
| compound | % Inhibition / % |
| --- | --- |
| Cn1ncc2ccc(Nc3nccc(-c4ccc5c(c4)c(N)nn5C)n3)cc21 | 80.69 |
| COc1cc2cc(Cc3cnc(N)nc3N)ccc2c(OC)c1OC | -6.286 |
| CCCCOc1ccc(C(O)C(CN2CCCCC2)c2ccccc2)cc1 (centres unmarked) | 4.712 |

Please report the recorded % Inhibition for CCC(CC)CN1C(=O)C(C)(c2ccccc2)N=C1N (centres unmarked) . 1.821

Please report the recorded % Inhibition for CCCCCCOc1ccc(N2C(N)=NC(N)=NC2(C)C)cc1 . 25.73

Please report the recorded % Inhibition for COc1cccc(C(=O)NCc2n[nH]c(=S)n2-c2ccc(Cl)c(Cl)c2)c1 . 81.2

Please report the recorded % Inhibition for COc1ccc(C2C(C(=O)OC3CCCC3)=C(C)NC3=C2C(=O)CCC3)cc1Br (centres unmarked) . -24.26

Please report the recorded % Inhibition for O=C(NCc1ccc(S(=O)(=O)N2CCC(CN3CCC(c4c[nH]c5ccccc45)CC3)CC2)s1)c1ccccc1 . 48.92

Please report the recorded % Inhibition for COc1cc2nc(NCCn3ccnc3C)nc(NCCc3ccccc3)c2cc1OC . 66.44

Please report the recorded % Inhibition for Cc1cc2ccc(-c3cccc(CN)c3)cc2nc1N . 65.41

Please report the recorded % Inhibition for CCC(=O)Oc1ccc(NC(=O)c2cccc(OC)c2)cc1 . 8.36

Please report the recorded % Inhibition for COc1ccc(OCCON)cc1 . 14.77

Please report the recorded % Inhibition for Cc1ccc(O)cc1Nc1ccnc2cc(-c3cccc(CNCCS(C)(=O)=O)c3)ccc12 . -16.38

Please report the recorded % Inhibition for CCCCCN1C(=O)N(c2ccc(Cl)c(Cl)c2)C(N(O)C(=O)Nc2ccc(Cl)c(Cl)c2)C1(C)C (centres unmarked) . 67.16

Please report the recorded % Inhibition for Cc1cc(C)nc(-n2[nH]c(C)c(Cc3ccc(C(C)(C)C)cc3)c2=O)n1 . 16.36

Measured values drawn from paper PMC4552634 for this set.
